TEST DETAILS: pharmacokinetic parameters from tests in dogs
Format: in vivo
EXPERIMENTAL CONDITIONS: dog, plasma, oral, read-out: systemic bioavailability
ASSAY METRIC: bioavailability (%)
Value expressed in %; do not type the unit.

What bioavailability value was documented for this molecule, Fc1ccc(C(OCCN2CCN(CCCc3ccccc3)CC2)c2ccc(F)cc2)cc1 [Vanoxerine] ?
23

* * *

TEST DETAILS: pharmacokinetic parameters from tests in dogs
Format: in vivo
EXPERIMENTAL CONDITIONS: dog, plasma, read-out: T1/2 (elimination from the plasma) (converted)
Excerpt: Vanoxerine is primarily eliminated from the body in urine, bile, and feces. Indeed, a substantial amount of the drug is expelled, unabsorbed into the feces. […] However, the long half-life of the drug may actually be utilized to minimize the continuous or regular dosing of the drug.
ASSAY METRIC: half-life
Note to self: number, then unit, no commentary.

What half-life value was documented for this compound, `Fc1ccc(C(OCCN2CCN(CCCc3ccccc3)CC2)c2ccc(F)cc2)cc1` ?
22 h

* * *

TEST DETAILS: Example 3: daily doses for 11 consecutive days, PK and hemodynamics
Assay type: in vivo, human
EXPERIMENTAL CONDITIONS: human, plasma; 100 mg daily, 11 days; read-out: PK Data (Mean +/− SD) CMax
ASSAY METRIC: Cmax (ng/mL)
Value expressed in ng/mL; do not type the unit.

What Cmax value was documented for this compound, `Fc1ccc(C(OCCN2CCN(CCCc3ccccc3)CC2)c2ccc(F)cc2)cc1` ?
40.2

* * *

TEST DETAILS: Example 3: daily doses for 11 consecutive days, PK and hemodynamics
Format: in vivo, human
EXPERIMENTAL CONDITIONS: human, plasma; 100 mg daily, 11 days; read-out: PK Data (Mean +/− SD) T1/2 (converted)
ASSAY METRIC: half-life (min)
Value expressed in min; do not type the unit.

What half-life value was documented for this compound, `Fc1ccc(C(OCCN2CCN(CCCc3ccccc3)CC2)c2ccc(F)cc2)cc1` ?
923

* * *

TEST DETAILS: Example 3: daily doses for 11 consecutive days, PK and hemodynamics
Type: in vivo, human
EXPERIMENTAL CONDITIONS: human, plasma; 50 mg daily, 11 days; read-out: PK Data (Mean +/− SD) T1/2 (converted)
ASSAY METRIC: half-life
Note to self: number, then unit, no commentary.

What half-life value was documented for this molecule, `Fc1ccc(C(OCCN2CCN(CCCc3ccccc3)CC2)c2ccc(F)cc2)cc1` ?
49.4 h

* * *

TEST DETAILS: Example 3: daily doses for 11 consecutive days, PK and hemodynamics
Assay type: in vivo, human
EXPERIMENTAL CONDITIONS: human, plasma; 75 mg daily, 11 days; read-out: PK Data (Mean +/− SD) CMax
ASSAY METRIC: Cmax (ng/mL)
Value expressed in ng/mL; do not type the unit.

What Cmax value was documented for this compound, Fc1ccc(C(OCCN2CCN(CCCc3ccccc3)CC2)c2ccc(F)cc2)cc1 [Vanoxerine] ?
27.4
